Source of measurements: PubChem BioAssay AID1963862

Tested on: KRAS patient-derived spheroids with HUVEC/MSC, viability
experiment: Anticancer human tumor 941728-121-R-J1-PDC patient-derived lung adenocarcinoma cell line growth inhibition [KRAS2]
measurement-parameters: second compound 10 µM; first compound 0.001 µM; hits give low values
Labelling field: enter true (1) if recorded viability, T/C is less than 10%. Enter false (0) if it equals or exceeds that cut-off.

[
  {
    "molecule": "CC(=O)Nc1cccc(-n2c(=O)n(C3CC3)c(=O)c3c(Nc4ccc(I)cc4F)n(C)c(=O)c(C)c32)c1 + C=CC(=O)N1CCN(c2nc(=O)n(-c3c(C)ccnc3C(C)C)c3nc(-c4c(O)cccc4F)c(F)cc23)C(C)C1",
    "group-label": "false (0)"
  },
  {
    "molecule": "CN(C)C/C=C/C(=O)Nc1cc2c(Nc3ccc(F)c(Cl)c3)ncnc2cc1O[C@H]1CCOC1 + C=CC(=O)N1CCN(c2nc(=O)n(-c3c(C)ccnc3C(C)C)c3nc(-c4c(O)cccc4F)c(F)cc23)C(C)C1",
    "group-label": "false (0)"
  },
  {
    "molecule": "CC(=O)Nc1cccc(-n2c(=O)n(C3CC3)c(=O)c3c(Nc4ccc(I)cc4F)n(C)c(=O)c(C)c32)c1 + COc1cc2nc(C)nc(NC(C)c3cc(N)cc(C(F)(F)F)c3)c2cc1OC1CCOC1",
    "group-label": "true (1)"
  },
  {
    "molecule": "Cn1ncnc1[C@H]1c2n[nH]c(=O)c3cc(F)cc(c23)N[C@@H]1c1ccc(F)cc1 + COc1cc2nc(C)nc(NC(C)c3cc(N)cc(C(F)(F)F)c3)c2cc1OC1CCOC1",
    "group-label": "false (0)"
  },
  {
    "molecule": "Cn1ncnc1[C@H]1c2n[nH]c(=O)c3cc(F)cc(c23)N[C@@H]1c1ccc(F)cc1 + C=CC(=O)N1CCN(c2nc(=O)n(-c3c(C)ccnc3C(C)C)c3nc(-c4c(O)cccc4F)c(F)cc23)C(C)C1",
    "group-label": "false (0)"
  }
]

viability, T/C strictly < 10% for this molecule? Cn1ncnc1[C@H]1c2n[nH]c(=O)c3cc(F)cc(c23)N[C@@H]1c1ccc(F)cc1 + CNCc1ccccc1-c1csc(C(C)Nc2nc(C)nc3cc(OC)c(OC)cc23)c1 true (1)

Next record, please: CC(=O)Nc1cccc(-n2c(=O)n(C3CC3)c(=O)c3c(Nc4ccc(I)cc4F)n(C)c(=O)c(C)c32)c1 + CC1OCC2(CCN(c3cnc(Sc4ccnc(N)c4Cl)c(N)n3)CC2)C1N false (0)

Next record, please: CN(C)C/C=C/C(=O)Nc1cc2c(Nc3ccc(F)c(Cl)c3)ncnc2cc1O[C@H]1CCOC1 + CNCc1ccccc1-c1csc(C(C)Nc2nc(C)nc3cc(OC)c(OC)cc23)c1 true (1)

* * *

Test system: KRAS patient-derived spheroids with HUVEC/MSC, viability
experiment: Anticancer human tumor 941728-121-R-J1-PDC cell line growth inhibition [KRAS2]; active means viability on the fitted dose curve at most 10% of control; inactive means the rest;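 also: spheroids exposed to agents for seven days before readout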
measurement-parameters: second compound 1 µM; first compound 3.16 µM
Hello, when you answer, please use one of the following outcomes: active, inactive

Consider the following illustrative entries.
[
  {
    "compound": "Cn1nccc1Nc1nccc(-c2cc3c(s2)C(C)(C)N(CCN2CCOCC2)C3=O)n1 + CC1OCC2(CCN(c3cnc(Sc4ccnc(N)c4Cl)c(N)n3)CC2)C1N",
    "group-label": "inactive"
  },
  {
    "compound": "CC1(C)CCC(CN2CCN(c3ccc(C(=O)NS(=O)(=O)c4ccc(NCC5CCOCC5)c([N+](=O)[O-])c4)c(Oc4cnc5[nH]ccc5c4)c3)CC2)=C(c2ccc(Cl)cc2)C1 + C=CC(=O)N1CCN(c2nc(OCC3CCCN3C)nc3c2CCN(c2cccc4cccc(C)c24)C3)CC1CC#N",
    "group-label": "active"
  },
  {
    "compound": "CC(C)NCC(C(=O)N1CCN(c2ncnc3c2C(C)CC3O)CC1)c1ccc(Cl)cc1 (stereo not given) + C=CC(=O)N1CCN(c2nc(=O)n(-c3c(C)ccnc3C(C)C)c3nc(-c4c(O)cccc4F)c(F)cc23)C(C)C1",
    "group-label": "inactive"
  },
  {
    "compound": "CCNC(=O)CC1N=C(c2ccc(Cl)cc2)c2cc(OC)ccc2-n2c(C)nnc21 (stereo not given) + C=CC(=O)N1CCN(c2nc(=O)n(-c3c(C)ccnc3C(C)C)c3nc(-c4c(O)cccc4F)c(F)cc23)C(C)C1",
    "group-label": "inactive"
  },
  {
    "compound": "CC1COCCN1c1cc(-c2ccnn2C)c2ccnc(-c3ccn[nH]3)c2n1 (stereo not given) + C=CC(=O)N1CCN(c2nc(OCC3CCCN3C)nc3c2CCN(c2cccc4cccc(C)c24)C3)CC1CC#N",
    "group-label": "inactive"
  },
  {
    "compound": "COc1cc(Nc2ncc3c(n2)-c2ccc(Cl)cc2C(c2c(F)cccc2OC)=NC3)ccc1C(=O)O + CNCc1ccccc1-c1csc(C(C)Nc2nc(C)nc3cc(OC)c(OC)cc23)c1",
    "group-label": "inactive"
  },
  {
    "compound": "CC1COCCN1c1cc(-c2ccnn2C)c2ccnc(-c3ccn[nH]3)c2n1 (stereo not given) + CC1OCC2(CCN(c3cnc(Sc4ccnc(N)c4Cl)c(N)n3)CC2)C1N",
    "group-label": "inactive"
  },
  {
    "compound": "CC(=O)OC12COC1CC(O)C1(C)C(=O)C(O)C3=C(C)C(OC(=O)C(O)C(NC(=O)OC(C)(C)C)c4ccccc4)CC(O)(C(OC(=O)c4ccccc4)C21)C3(C)C (stereo not given) + CNCc1ccccc1-c1csc(C(C)Nc2nc(C)nc3cc(OC)c(OC)cc23)c1",
    "group-label": "inactive"
  },
  {
    "compound": "CC(=O)OC12COC1CC(O)C1(C)C(=O)C(O)C3=C(C)C(OC(=O)C(O)C(NC(=O)OC(C)(C)C)c4ccccc4)CC(O)(C(OC(=O)c4ccccc4)C21)C3(C)C (stereo not given) + C=CC(=O)N1CCN(c2nc(=O)n(-c3c(C)ccnc3C(C)C)c3nc(-c4c(O)cccc4F)c(F)cc23)C(C)C1",
    "group-label": "inactive"
  }
]

Next compound, please.
Entry CC(C)NCC(C(=O)N1CCN(c2ncnc3c2C(C)CC3O)CC1)c1ccc(Cl)cc1 (stereo not given) + CNCc1ccccc1-c1csc(C(C)Nc2nc(C)nc3cc(OC)c(OC)cc23)c1 : call = ? active

* * *

Test system: KRAS patient-derived spheroids with HUVEC/MSC, viability
experiment: Anticancer human tumor 941728-121-R-J1-PDC cell line growth inhibition [KRAS2];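 also: spheroids exposed to agents for seven days before readout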
measurement-parameters: second compound 0.316 µM; first compound 0.1 µM; hits give low values
Binning scheme for viability, T/C: lo: < 20%; med: ≥ 20% and < 40%; hi: ≥ 40%

Consider the following illustrative entries.
[
  {
    "compound": "COc1cc2nccc(Oc3ccc(NC(=O)C4(C(=O)Nc5ccc(F)cc5)CC4)cc3)c2cc1OC + CC1OCC2(CCN(c3cnc(Sc4ccnc(N)c4Cl)c(N)n3)CC2)C1N",
    "group-label": "med"
  },
  {
    "compound": "CCN1CCN(Cc2ccc(Nc3ncc(F)c(-c4cc(F)c5nc(C)n(C(C)C)c5c4)n3)nc2)CC1 + C=CC(=O)N1CCN(c2nc(=O)n(-c3c(C)ccnc3C(C)C)c3nc(-c4c(O)cccc4F)c(F)cc23)C(C)C1",
    "group-label": "lo"
  },
  {
    "compound": "CC(C)NCC(C(=O)N1CCN(c2ncnc3c2C(C)CC3O)CC1)c1ccc(Cl)cc1 (stereo not given) + CNCc1ccccc1-c1csc(C(C)Nc2nc(C)nc3cc(OC)c(OC)cc23)c1",
    "group-label": "hi"
  },
  {
    "compound": "CCNC(=O)CC1N=C(c2ccc(Cl)cc2)c2cc(OC)ccc2-n2c(C)nnc21 (stereo not given) + CNCc1ccccc1-c1csc(C(C)Nc2nc(C)nc3cc(OC)c(OC)cc23)c1",
    "group-label": "med"
  },
  {
    "compound": "Cn1ncnc1[C@H]1c2n[nH]c(=O)c3cc(F)cc(c23)N[C@@H]1c1ccc(F)cc1 + C=CC(=O)N1CCN(c2nc(=O)n(-c3c(C)ccnc3C(C)C)c3nc(-c4c(O)cccc4F)c(F)cc23)C(C)C1",
    "group-label": "lo"
  }
]

Which category fits this record: COc1cc2nccc(Oc3ccc(NC(=O)C4(C(=O)Nc5ccc(F)cc5)CC4)cc3)c2cc1OC + C=CC(=O)N1CCN(c2nc(OCC3CCCN3C)nc3c2CCN(c2cccc4cccc(C)c24)C3)CC1CC#N lo

Next record, please: CC(C)n1nc(-c2ccc3oc(N)nc3c2)c2c(N)ncnc21 + CC1OCC2(CCN(c3cnc(Sc4ccnc(N)c4Cl)c(N)n3)CC2)C1N lo

Next record, please: Cn1nccc1Nc1nccc(-c2cc3c(s2)C(C)(C)N(CCN2CCOCC2)C3=O)n1 + CC1OCC2(CCN(c3cnc(Sc4ccnc(N)c4Cl)c(N)n3)CC2)C1N hi

Next record, please: CCNC(=O)CC1N=C(c2ccc(Cl)cc2)c2cc(OC)ccc2-n2c(C)nnc21 (stereo not given) + CC1OCC2(CCN(c3cnc(Sc4ccnc(N)c4Cl)c(N)n3)CC2)C1N med

Next record, please: O=C(c1cc(Cc2n[nH]c(=O)c3ccccc23)ccc1F)N1CCN(C(=O)C2CC2)CC1 + CC1OCC2(CCN(c3cnc(Sc4ccnc(N)c4Cl)c(N)n3)CC2)C1N hi

Next record, please: CC(C)NCC(C(=O)N1CCN(c2ncnc3c2C(C)CC3O)CC1)c1ccc(Cl)cc1 (stereo not given) + COc1cc2nc(C)nc(NC(C)c3cc(N)cc(C(F)(F)F)c3)c2cc1OC1CCOC1 hi

Next record, please: CN(C)C/C=C/C(=O)Nc1cc2c(Nc3ccc(F)c(Cl)c3)ncnc2cc1O[C@H]1CCOC1 + CC1OCC2(CCN(c3cnc(Sc4ccnc(N)c4Cl)c(N)n3)CC2)C1N hi

Next record, please: CC1COCCN1c1cc(-c2ccnn2C)c2ccnc(-c3ccn[nH]3)c2n1 (stereo not given) + COc1cc2nc(C)nc(NC(C)c3cc(N)cc(C(F)(F)F)c3)c2cc1OC1CCOC1 med

Next record, please: CC(=O)OC12COC1CC(O)C1(C)C(=O)C(O)C3=C(C)C(OC(=O)C(O)C(NC(=O)OC(C)(C)C)c4ccccc4)CC(O)(C(OC(=O)c4ccccc4)C21)C3(C)C (stereo not given) + C=CC(=O)N1CCN(c2nc(OCC3CCCN3C)nc3c2CCN(c2cccc4cccc(C)c24)C3)CC1CC#N med

Next record, please: COc1cc(Nc2ncc3c(n2)-c2ccc(Cl)cc2C(c2c(F)cccc2OC)=NC3)ccc1C(=O)O + CNCc1ccccc1-c1csc(C(C)Nc2nc(C)nc3cc(OC)c(OC)cc23)c1 med

Next record, please: CC(=O)OC12COC1CC(O)C1(C)C(=O)C(O)C3=C(C)C(OC(=O)C(O)C(NC(=O)OC(C)(C)C)c4ccccc4)CC(O)(C(OC(=O)c4ccccc4)C21)C3(C)C (stereo not given) + CNCc1ccccc1-c1csc(C(C)Nc2nc(C)nc3cc(OC)c(OC)cc23)c1 med

Next record, please: COc1cc(Nc2ncc3c(n2)-c2ccc(Cl)cc2C(c2c(F)cccc2OC)=NC3)ccc1C(=O)O + C=CC(=O)N1CCN(c2nc(=O)n(-c3c(C)ccnc3C(C)C)c3nc(-c4c(O)cccc4F)c(F)cc23)C(C)C1 med

Next record, please: CC(=O)OC12COC1CC(O)C1(C)C(=O)C(O)C3=C(C)C(OC(=O)C(O)C(NC(=O)OC(C)(C)C)c4ccccc4)CC(O)(C(OC(=O)c4ccccc4)C21)C3(C)C (stereo not given) + COc1cc2nc(C)nc(NC(C)c3cc(N)cc(C(F)(F)F)c3)c2cc1OC1CCOC1 med
